# system.name: Sucrase-isomaltase, intestinal (Rattus norvegicus, UniProt P23739)
# Sequence (P23739 1-1013 limits assumed): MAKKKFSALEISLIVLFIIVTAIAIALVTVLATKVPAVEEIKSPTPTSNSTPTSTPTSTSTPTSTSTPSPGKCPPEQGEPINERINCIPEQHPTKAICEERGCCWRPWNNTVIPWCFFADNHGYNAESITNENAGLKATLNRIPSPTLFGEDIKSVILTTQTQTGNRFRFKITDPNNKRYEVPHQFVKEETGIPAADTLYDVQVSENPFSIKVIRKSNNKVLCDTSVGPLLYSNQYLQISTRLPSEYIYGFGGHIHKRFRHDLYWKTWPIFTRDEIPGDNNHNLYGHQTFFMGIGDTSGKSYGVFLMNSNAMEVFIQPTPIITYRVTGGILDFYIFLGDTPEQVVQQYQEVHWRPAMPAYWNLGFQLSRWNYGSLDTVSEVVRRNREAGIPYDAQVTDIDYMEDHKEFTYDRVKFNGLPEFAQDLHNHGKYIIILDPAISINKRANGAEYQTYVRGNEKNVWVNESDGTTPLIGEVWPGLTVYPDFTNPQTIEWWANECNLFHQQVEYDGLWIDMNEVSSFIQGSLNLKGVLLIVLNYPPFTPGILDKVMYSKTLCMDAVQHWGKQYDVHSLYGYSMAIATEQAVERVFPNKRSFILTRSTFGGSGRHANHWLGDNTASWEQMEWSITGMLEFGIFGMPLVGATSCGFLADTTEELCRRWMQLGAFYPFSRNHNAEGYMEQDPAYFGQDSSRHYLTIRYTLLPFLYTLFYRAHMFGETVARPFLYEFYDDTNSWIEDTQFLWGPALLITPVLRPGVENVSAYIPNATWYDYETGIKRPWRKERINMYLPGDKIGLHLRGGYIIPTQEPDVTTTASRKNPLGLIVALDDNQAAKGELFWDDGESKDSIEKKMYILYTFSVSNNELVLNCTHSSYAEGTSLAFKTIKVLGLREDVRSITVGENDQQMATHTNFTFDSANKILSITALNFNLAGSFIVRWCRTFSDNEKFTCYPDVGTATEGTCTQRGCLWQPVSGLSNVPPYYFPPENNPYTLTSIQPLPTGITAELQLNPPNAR
# Sequence (P23739 1014-1841 limits assumed): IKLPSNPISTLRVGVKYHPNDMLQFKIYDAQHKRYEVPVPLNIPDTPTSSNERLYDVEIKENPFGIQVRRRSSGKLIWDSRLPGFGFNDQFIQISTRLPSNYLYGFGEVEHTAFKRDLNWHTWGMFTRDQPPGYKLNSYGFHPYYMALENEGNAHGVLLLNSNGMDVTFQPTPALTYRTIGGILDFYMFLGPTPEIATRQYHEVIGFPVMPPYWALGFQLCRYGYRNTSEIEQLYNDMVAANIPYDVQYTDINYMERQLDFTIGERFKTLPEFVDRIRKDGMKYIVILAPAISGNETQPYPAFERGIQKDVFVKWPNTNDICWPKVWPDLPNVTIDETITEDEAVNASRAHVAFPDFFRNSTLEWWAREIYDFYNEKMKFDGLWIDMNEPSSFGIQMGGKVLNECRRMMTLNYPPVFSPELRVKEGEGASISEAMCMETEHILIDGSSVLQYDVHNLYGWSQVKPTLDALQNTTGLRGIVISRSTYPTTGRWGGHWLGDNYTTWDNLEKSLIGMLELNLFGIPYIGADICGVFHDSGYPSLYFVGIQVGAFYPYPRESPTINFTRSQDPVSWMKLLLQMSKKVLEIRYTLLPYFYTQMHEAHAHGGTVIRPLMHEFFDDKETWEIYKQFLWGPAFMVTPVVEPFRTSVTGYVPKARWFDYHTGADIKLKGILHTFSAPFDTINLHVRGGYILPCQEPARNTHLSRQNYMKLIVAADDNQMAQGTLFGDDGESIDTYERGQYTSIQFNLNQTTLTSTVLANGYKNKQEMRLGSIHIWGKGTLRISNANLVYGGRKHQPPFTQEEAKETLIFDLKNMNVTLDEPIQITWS
# protocol.notes: Competitive inhibition of rat intestinal sucrase
recorded.endpoint: pKi
Numbers only, as −log10 of the molar value.

GET /values?readout=pKi&system=Sucrase-isomaltase, intestinal (Rattus norvegicus, UniProt P23739)&item= O=S(=O)([O-])O[C@@H](CO)[C@H](O)C[S@+]1C[C@@H](O)[C@H](O)[C@H]1CO
6.02

###

# system.name: Sucrase-isomaltase, intestinal (Rattus norvegicus)
# protocol.notes: Inhibition of rat small intestinal isomaltase after 30 mins by glucose-oxidase method
I'd be grateful if you could share measured pIC50 for these entries.
Give bare numbers, as −log10 of the molar value.

> print(dat)
                                   compound  recorded.endpoint  measurement
1  CO[C@@H](CO)[C@H](O)C[S+]1C[C@@H](O)[C@H](O)[C@H]1CO (single isomer, unassigned)              pIC50         6.41
2  CCCCCCCCCCCCCO[C@@H](CO)[C@H](O)C[S+]1C[C@@H](O)[C@H](O)[C@H]1CO (single isomer, unassigned)              pIC50         6.02

# input compound: CCO[C@@H](CO)[C@H](O)C[S+]1C[C@@H](O)[C@H](O)[C@H]1CO (single isomer, unassigned) ; wanted: its pIC50
6.57

###

# system.name: Sucrase-isomaltase, intestinal (Rattus norvegicus)
# protocol.notes: Inhibition of rat small intestinal sucrase after 30 mins by glucose-oxidase method
recorded.endpoint: pIC50
Numbers only, as −log10 of the molar value.

# annotated cases, reported pIC50 shown
> print(dat)
                                   compound  measurement
1  CO[C@@H](CO)[C@H](O)C[S+]1C[C@@H](O)[C@H](O)[C@H]1CO (single isomer, unassigned)         6.34
2  OC[C@H](OCc1ccccc1)[C@H](O)C[S+]1C[C@@H](O)[C@H](O)[C@H]1CO (single isomer, unassigned)         6.49
3  CCO[C@@H](CO)[C@H](O)C[S+]1C[C@@H](O)[C@H](O)[C@H]1CO (single isomer, unassigned)         6.92

# input compound: CCCCCCCCCCCCCO[C@@H](CO)[C@H](O)C[S+]1C[C@@H](O)[C@H](O)[C@H]1CO (single isomer, unassigned) ; wanted: its pIC50
5.89

###

# system.name: Sucrase-isomaltase, intestinal (Rattus norvegicus, UniProt P23739)
# protocol.notes: Competitive inhibition of rat intestinal isomaltase
recorded.endpoint: Ki (nM)
Give bare numbers, in nM.

# input compound: O=S(=O)([O-])O[C@@H](CO)[C@H](O)C[S@+]1C[C@@H](O)[C@H](O)[C@H]1CO [SALACINOL] ; wanted: its Ki
1410

Ref: ChEMBL document CHEMBL1770143
